- assayed-target: recombinant AplaCSP4 (Agrilus planipennis chemosensory protein 4) (Agrilus planipennis, UniProt A0A1W4XLL0)
- Sequence (A0A1W4XLL0 entry or part of it): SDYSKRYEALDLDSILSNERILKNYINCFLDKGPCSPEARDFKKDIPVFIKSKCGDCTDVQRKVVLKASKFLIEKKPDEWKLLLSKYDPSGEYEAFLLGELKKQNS
- assay-remarks: biochemical
- Format: binding
- condition-details: discussion of fluorescence competitive binding results
parameter: binding to AplaCSP4 (in words)

1) C=C(C)C1CC=C(C)CC1 (single isomer, unassigned; (+)) [(+)-Limonene]	binding capabilities
2) C=CC(C)=CCC=C(C)C	binding capabilities
3) C=CC(=C)CCC=C(C)C	binding capabilities
4) CCCCCCCCCCCC	binding capabilities

* * *

Recorded activity at 10 µM for the following molecules
- assayed-target: recombinant AplaCSP4 (Agrilus planipennis chemosensory protein 4) (Agrilus planipennis)
- assay-remarks: biochemical
- Format: binding
- condition-details: pH 7.4, ligand concentration 10 μM; three replicate columns; 100 at 0 μM; read-out: Competitive binding capability(%)
Field format: number, assumed %, no unit text.

1. C=CC(C)(O)CCC=C(C)CCC=C(C)C (mixture of isomers)	17.9
2. C=CC(=C)CCC=C(C)C	61.1
3. CCCCCCOC(=O)CCC [Hexyl butyrate]	65.8

Asked: I'd like to know its activity at 10 µM. The molecule in question is CC/C=C\CCOC(=O)c1ccccc1 [cis-3-Hexenyl benzoate]
Given back: 39.2
